# Tested on: Acinetobacter baumannii
# TEST_SUMMARY: Antibacterial activity against Acinetobacter baumannii ATCC 19606 measured after 18 hrs by resazurin dye based assay
# Type: functional
# CONDITIONS_USED: ATCC 19606 = CIP 70.34 = JCM 6841, 18 h
As shown below, each of these compounds has a reported MIC value.

{"columns": ["MOLECULAR_STRING", "SYSTEM_NAME", "MIC"],
 "data": [
  ["O=C(NCCCNCCCCCCCCCCCCNCCCNC(=O)C(=O)c1c[nH]c2cc(Br)ccc12)C(=O)c1c[nH]c2cc(Br)ccc12.O=C(O)C(F)(F)F.O=C(O)C(F)(F)F", "Acinetobacter baumannii", "> 32 µM"],
  ["O=C(N[C@H](CO)[C@H](O)c1ccc([N+](=O)[O-])cc1)C(Cl)Cl", "Acinetobacter baumannii", "> 200 µM"],
  ["O=C(NCCCNCCCCCCNCCCNC(=O)C(=O)c1c[nH]c2cc(Br)ccc12)C(=O)c1c[nH]c2cc(Br)ccc12.O=C(O)C(F)(F)F.O=C(O)C(F)(F)F", "Acinetobacter baumannii", "> 33.4 µM"],
  ["O=C(NCCCNCCCCCCCCNCCCNC(=O)C(=O)c1c[nH]c2cc(Br)ccc12)C(=O)c1c[nH]c2cc(Br)ccc12.O=C(O)C(F)(F)F.O=C(O)C(F)(F)F", "Acinetobacter baumannii", "> 32.4 µM"],
  ["O=C(NCCCNCCCCCCCNCCCNC(=O)C(=O)c1c[nH]c2cc(Br)ccc12)C(=O)c1c[nH]c2cc(Br)ccc12.O=C(O)C(F)(F)F.O=C(O)C(F)(F)F", "Acinetobacter baumannii", "> 33 µM"],
  ["CC[C@H]1OC(=O)[C@H](C)[C@@H](O[C@H]2C[C@@](C)(OC)[C@@H](O)[C@H](C)O2)[C@H](C)[C@@H](O[C@@H]2O[C@H](C)C[C@H](N(C)C)[C@H]2O)[C@](C)(O)C[C@@H](C)C(=O)[C@H](C)[C@@H](O)[C@]1(C)O", "Acinetobacter baumannii", "200 µM"],
  ["O=C(NCCCCNCCCNC(=O)C(=O)c1c[nH]c2cc(Br)ccc12)C(=O)c1c[nH]c2cc(Br)ccc12", "Acinetobacter baumannii", "> 50 µM"],
  ["O=C(NCCCNCCNC(=O)C(=O)c1c[nH]c2cc(Br)ccc12)C(=O)c1c[nH]c2cc(Br)ccc12", "Acinetobacter baumannii", "> 52 µM"],
  ["C[C@H]1c2cccc(O)c2C(=O)C2=C(O)[C@]3(O)C(=O)C(C(N)=O)=C(O)[C@@H](N(C)C)[C@@H]3[C@@H](O)[C@@H]21.O", "Acinetobacter baumannii", "12.5 µM"],
  ["O=C(NCCCNCCCCCCCCCCNCCCNC(=O)C(=O)c1c[nH]c2cc(Br)ccc12)C(=O)c1c[nH]c2cc(Br)ccc12.O=C(O)C(F)(F)F.O=C(O)C(F)(F)F", "Acinetobacter baumannii", "31.5 µM"],
  ["O=C(NCCCNCCCCNCCCNC(=O)C(=O)c1c[nH]c2cc(Br)ccc12)C(=O)c1c[nH]c2cc(Br)ccc12", "Acinetobacter baumannii", "> 34 µM"],
  ["O=C(NCCCCNC(=O)C(=O)c1c[nH]c2cc(Br)ccc12)C(=O)c1c[nH]c2cc(Br)ccc12", "Acinetobacter baumannii", "> 54 µM"],
  ["O=C(NCCCOCCOCCOCCCNC(=O)C(=O)c1c[nH]c2cc(Br)ccc12)C(=O)c1c[nH]c2cc(Br)ccc12", "Acinetobacter baumannii", "> 44 µM"],
  ["CN(C)CCNC(=O)C(=O)c1c[nH]c2cc(Br)ccc12", "Acinetobacter baumannii", "> 95 µM"],
  ["O=C(NCCCCCCCCCCCCNC(=O)C(=O)c1c[nH]c2cc(Br)ccc12)C(=O)c1c[nH]c2cc(Br)ccc12", "Acinetobacter baumannii", "> 46 µM"],
  ["O=C(NCCN1CCOCC1)C(=O)c1c[nH]c2cc(Br)ccc12", "Acinetobacter baumannii", "> 84 µM"],
  ["CCn1cc(C(=O)O)c(=O)c2ccc(C)nc21", "Acinetobacter baumannii", "> 200 µM"]
]}
